- Tested on: Caenorhabditis elegans
- EXPERIMENT NOTES: Increase in life span of Caenorhabditis elegans Bristol N2 at late L4 larval stage at 50 uM in presence of 5-fluorodesoxyuridine relative to control
- Format: functional
Assign yes to entries whose ILS at 50 µM meets or exceeds 20%; assign no to the rest.

Worked examples, 8 molecules total:
[
  {
    "STRUCTURE": "CC(=O)O[C@@H]1[C@@H]2[C@@H](OC(C)=O)[C@]3(OC2(C)C)[C@H](C)C[C@@H](OC(C)=O)[C@H](OC(C)=O)[C@@]3(C)[C@@H]1OC(=O)c1ccccc1",
    "CLASS": "no"
  },
  {
    "STRUCTURE": "CC(=O)O[C@H]1[C@@H]2[C@@H](OC(=O)c3ccccc3)[C@]3(OC2(C)C)[C@H](C)C[C@@H](OC(C)=O)[C@H](OC(C)=O)[C@@]3(C)[C@H]1OC(=O)c1ccccc1",
    "CLASS": "yes"
  },
  {
    "STRUCTURE": "CC(=O)OC[C@]12[C@@H](OC(=O)c3ccccc3)[C@@H](OC(C)=O)[C@@H]3[C@@H](OC(C)=O)[C@]1(OC3(C)C)[C@H](C)C[C@H](OC(C)=O)[C@@H]2OC(C)=O",
    "CLASS": "no"
  },
  {
    "STRUCTURE": "CC(=O)O[C@@H]1[C@@H]2[C@@H](OC(C)=O)[C@]3(OC2(C)C)[C@H](C)CC[C@H](O)[C@@]3(C)[C@@H]1OC(=O)c1ccccc1",
    "CLASS": "no"
  },
  {
    "STRUCTURE": "CC(=O)O[C@@H]1[C@@H]2[C@@H](OC(C)=O)[C@]3(OC2(C)C)[C@H](C)CC(=O)[C@H](OC(C)=O)[C@@]3(C)[C@@H]1OC(=O)c1ccccc1",
    "CLASS": "yes"
  },
  {
    "STRUCTURE": "CC(=O)O[C@@H]1[C@H]2C[C@H](OC(=O)c3ccccc3)[C@]3(C)[C@@H](OC(C)=O)[C@H](OC(C)=O)C[C@@H](C)[C@@]13OC2(C)C",
    "CLASS": "no"
  },
  {
    "STRUCTURE": "CC(=O)O[C@@H]1[C@@H]2[C@@H](OC(C)=O)[C@]3(OC2(C)C)[C@H](C)C[C@H](OC(=O)/C=C/c2ccccc2)[C@H](OC(C)=O)[C@@]3(C)[C@@H]1OC(=O)c1ccccc1",
    "CLASS": "no"
  },
  {
    "STRUCTURE": "CC(=O)O[C@H]1[C@@H]2[C@@H](OC(C)=O)[C@]3(OC2(C)C)[C@H](C)C[C@@H](OC(C)=O)[C@H](OC(C)=O)[C@@]3(C)[C@H]1OC(=O)c1ccccc1",
    "CLASS": "no"
  }
]

Prompt: ILS at 50 µM >= 20% for `CC(=O)O[C@H]1[C@@H]2C[C@]3(OC2(C)C)[C@H](C)C[C@H](OC(C)=O)[C@@H](OC(C)=O)[C@@]3(C)[C@H]1OC(=O)c1ccccc1` ?
Completion: no
